test: Drug concentration in mouse plasma at 10 mg/kg, po measured at 12 hrs by LC-MS/MS analysis; format: ADME, organism-based
quantity_measured: concentration at 12 h (ng/mL)

1) CN(CCCCN(C[C@H]1Cc2ncccc2CN1)[C@H]1CCCc2cccnc21)C1CCC(F)(F)CC1: 14.3

----------
Each entry below carries its measured IC50, system: Voltage-gated inwardly rectifying potassium channel KCNH2 (Homo sapiens, UniProt Q12809).
Sequence (Q12809 whole entry): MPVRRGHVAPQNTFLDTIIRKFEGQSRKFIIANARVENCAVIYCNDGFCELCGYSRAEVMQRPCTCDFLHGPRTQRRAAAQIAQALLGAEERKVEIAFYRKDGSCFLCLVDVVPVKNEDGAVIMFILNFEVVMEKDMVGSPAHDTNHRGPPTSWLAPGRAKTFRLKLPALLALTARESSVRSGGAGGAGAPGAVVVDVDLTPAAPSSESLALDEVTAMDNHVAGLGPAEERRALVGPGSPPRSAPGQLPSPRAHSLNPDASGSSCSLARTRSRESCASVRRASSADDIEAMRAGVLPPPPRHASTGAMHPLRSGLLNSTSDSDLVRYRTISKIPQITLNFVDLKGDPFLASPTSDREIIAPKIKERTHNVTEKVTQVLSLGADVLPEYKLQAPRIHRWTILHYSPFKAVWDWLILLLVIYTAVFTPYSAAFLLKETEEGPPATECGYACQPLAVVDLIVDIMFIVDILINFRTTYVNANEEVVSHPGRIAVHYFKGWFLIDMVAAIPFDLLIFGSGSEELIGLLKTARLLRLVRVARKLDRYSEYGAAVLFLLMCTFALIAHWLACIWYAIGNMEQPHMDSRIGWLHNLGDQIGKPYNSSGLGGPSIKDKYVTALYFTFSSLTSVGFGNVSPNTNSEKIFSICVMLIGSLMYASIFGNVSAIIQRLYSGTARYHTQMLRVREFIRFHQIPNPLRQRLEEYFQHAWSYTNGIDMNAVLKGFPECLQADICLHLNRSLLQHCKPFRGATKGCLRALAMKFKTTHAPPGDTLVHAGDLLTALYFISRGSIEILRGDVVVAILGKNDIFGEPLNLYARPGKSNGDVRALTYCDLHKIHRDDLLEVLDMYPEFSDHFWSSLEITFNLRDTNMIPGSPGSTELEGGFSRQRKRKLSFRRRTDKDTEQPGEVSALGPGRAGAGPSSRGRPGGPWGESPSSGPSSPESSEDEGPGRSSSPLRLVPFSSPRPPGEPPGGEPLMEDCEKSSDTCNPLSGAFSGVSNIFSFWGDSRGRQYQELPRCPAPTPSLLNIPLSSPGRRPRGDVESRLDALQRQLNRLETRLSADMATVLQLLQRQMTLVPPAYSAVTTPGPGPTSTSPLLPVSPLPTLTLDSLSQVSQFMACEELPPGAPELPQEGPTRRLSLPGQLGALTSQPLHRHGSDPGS
quantity_measured: IC50 (µM)

1) c1cnc2c(c1)CN[C@@H](CN(CCCC1CCNCC1)[C@H]1CCCc3cccnc31)C2: 9.3
2) c1cnc2c(c1)CN[C@@H](CN(CCCCNC1COC1)[C@H]1CCCc3cccnc31)C2: 11
3) c1cnc2c(c1)CN[C@@H](CN(CCCCN1CCOCC1)[C@H]1CCCc3cccnc31)C2: 11
4) NCCCCN(C[C@H]1Cc2cccnc2CN1)[C@H]1CCCc2cccnc21: 5.4
5) CN(CCCCN(C[C@H]1Cc2ncccc2CN1)[C@H]1CCCc2cccnc21)C1CCC(F)(F)CC1: 17
6) NCCCCN(C[C@H]1Cc2ncccc2CN1)[C@H]1CCCc2cccnc21: 5.8

----------
molecular target: UniProtKB P14416; experiment: Inhibition of dopamine D2 receptor (unknown origin)
Sequence (P14416 whole entry): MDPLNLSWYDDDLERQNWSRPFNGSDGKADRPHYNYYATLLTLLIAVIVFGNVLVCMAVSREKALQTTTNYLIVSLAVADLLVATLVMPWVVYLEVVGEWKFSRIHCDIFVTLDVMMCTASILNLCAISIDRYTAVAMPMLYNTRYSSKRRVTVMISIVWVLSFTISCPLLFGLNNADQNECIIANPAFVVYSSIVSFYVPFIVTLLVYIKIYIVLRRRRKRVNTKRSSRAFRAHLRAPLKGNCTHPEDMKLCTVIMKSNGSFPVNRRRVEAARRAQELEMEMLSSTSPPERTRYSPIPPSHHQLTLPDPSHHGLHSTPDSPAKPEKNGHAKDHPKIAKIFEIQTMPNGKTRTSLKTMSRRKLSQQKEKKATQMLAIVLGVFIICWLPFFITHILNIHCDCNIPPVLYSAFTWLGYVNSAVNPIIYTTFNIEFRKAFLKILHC
quantity_measured: IC50

1. NCCCCN(C[C@H]1Cc2ncccc2CN1)[C@H]1CCCc2cccnc21: 9.4 µM
2. c1cnc2c(c1)CN[C@@H](CN(CCCCNC1COC1)[C@H]1CCCc3cccnc31)C2: > 30 µM
3. c1cnc2c(c1)CN[C@@H](CN(CCCCNC1CCOCC1)[C@H]1CCCc3cccnc31)C2: > 30 µM
4. c1cnc2c(c1)CN[C@@H](CN(CCCCN1CCOCC1)[C@H]1CCCc3cccnc31)C2: > 30 µM
5. NCCCCN(Cc1nc2ccccc2[nH]1)[C@H]1CCCc2cccnc21: 4.1 µM
6. c1cnc2c(c1)CN[C@@H](CN(CCCC1CCNCC1)[C@H]1CCCc3cccnc31)C2: 9.8 µM
7. CN(CCCCN(C[C@H]1Cc2ncccc2CN1)[C@H]1CCCc2cccnc21)C1CCC(F)(F)CC1: > 30 µM
8. CN(CCCCN(C[C@H]1Cc2ncccc2CN1)[C@H]1CCCc2cccnc21)C1CCOCC1: > 30 µM
9. NCCCCN(C[C@H]1Cc2ccccc2CN1)[C@H]1CCCc2cccnc21: 5.7 µM
10. NCCCCN(C[C@H]1Cc2cccnc2CN1)[C@H]1CCCc2cccnc21: 10 µM

----------
Molecular target: UniProtKB P05177
Sequence (P05177 whole entry): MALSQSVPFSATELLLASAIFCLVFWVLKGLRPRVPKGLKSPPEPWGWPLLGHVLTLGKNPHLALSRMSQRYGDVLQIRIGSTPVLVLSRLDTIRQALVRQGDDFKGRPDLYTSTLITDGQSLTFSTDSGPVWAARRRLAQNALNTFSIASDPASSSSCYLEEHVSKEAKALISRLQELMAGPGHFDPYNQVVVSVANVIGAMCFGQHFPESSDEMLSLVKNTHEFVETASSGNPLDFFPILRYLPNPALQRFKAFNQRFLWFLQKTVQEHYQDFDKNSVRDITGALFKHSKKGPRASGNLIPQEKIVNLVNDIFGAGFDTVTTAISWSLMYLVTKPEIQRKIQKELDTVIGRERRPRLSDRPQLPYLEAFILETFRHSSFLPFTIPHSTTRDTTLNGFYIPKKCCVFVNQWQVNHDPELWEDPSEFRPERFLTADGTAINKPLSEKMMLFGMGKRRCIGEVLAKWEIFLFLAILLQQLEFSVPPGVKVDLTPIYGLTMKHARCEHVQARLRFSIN
quantity_measured: IC50

1) CN(CCCCN(C[C@H]1Cc2ncccc2CN1)[C@H]1CCCc2cccnc21)C1CCC(F)(F)CC1: > 20 µM

----------
experiment: Clearence in mouse at 3 mg/kg, iv measured at 24 hrs by LC-MS analysis; format: ADME, organism-based; details: in vivo
quantity_measured: clearance (mL/min/kg)

1. CN(CCCCN(C[C@H]1Cc2ncccc2CN1)[C@H]1CCCc2cccnc21)C1CCC(F)(F)CC1: 188

----------
experiment: Metabolic stability in rat liver microsomes assessed compound remaining measured after 10 mins in presence of NADPH; format: ADME, Microsome; details: read-out: Stability
Listing: remaining at 10 min of selected compounds
quantity_measured: remaining at 10 min

1. NCCCCN(C[C@H]1Cc2ncccc2CN1)[C@H]1CCCc2cccnc21: 64%
2. NCc1ccc(CN(C[C@H]2Cc3ncccc3CN2)[C@H]2CCCc3cccnc32)cc1: 78%
3. NC(=O)NCCCCN(C[C@H]1Cc2ncccc2CN1)[C@H]1CCCc2cccnc21: 1%
4. CN(C[C@@H]1Cc2ncccc2CN1)[C@H]1CCCc2cccnc21: 1%
5. NC/C=C\CN(C[C@H]1Cc2ncccc2CN1)[C@H]1CCCc2cccnc21: 11%

----------
biological target: Muscarinic acetylcholine receptor M2 (Homo sapiens)
Sequence (P08172 whole entry): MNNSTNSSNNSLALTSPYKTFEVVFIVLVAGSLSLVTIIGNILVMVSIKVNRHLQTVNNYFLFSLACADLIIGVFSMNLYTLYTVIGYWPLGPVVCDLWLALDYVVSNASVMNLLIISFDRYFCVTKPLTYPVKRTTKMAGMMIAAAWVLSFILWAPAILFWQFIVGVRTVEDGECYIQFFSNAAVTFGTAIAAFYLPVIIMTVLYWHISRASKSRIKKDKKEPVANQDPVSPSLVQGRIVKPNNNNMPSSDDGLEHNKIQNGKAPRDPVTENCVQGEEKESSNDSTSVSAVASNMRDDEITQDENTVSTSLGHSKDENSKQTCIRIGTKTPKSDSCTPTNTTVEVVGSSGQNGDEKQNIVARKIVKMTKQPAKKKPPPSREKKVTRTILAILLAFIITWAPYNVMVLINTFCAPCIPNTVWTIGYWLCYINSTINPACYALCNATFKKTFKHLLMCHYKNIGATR
pIC50: −log10 of the molar value.
quantity_measured: pIC50

1) NCCCCN(Cc1nc2ccccc2[nH]1)[C@H]1CCCc2cccnc21 [MAVORIXAFOR]: 5.12
2) NCCCCN(C[C@H]1Cc2ncccc2CN1)[C@H]1CCCc2cccnc21: 5.06
3) NCCCCN(C[C@H]1Cc2cccnc2CN1)[C@H]1CCCc2cccnc21: 4.52

----------
assay: Cmax in mouse at 10 mg/kg, po measured after 8 hrs by LC-MS/MS analysis; assay type: ADME, organism-based; set-up: route oral, time 8 hrs, dose 10 mg/kg; conditions: in vivo
quantity_measured: Cmax

1) CN(CCCCN(C[C@H]1Cc2ncccc2CN1)[C@H]1CCCc2cccnc21)C1CCC(F)(F)CC1: 54.8 ng/mL

----------
experiment: Cmax in mouse at 3 mg/kg, iv measured after 8 hrs by LC-MS/MS analysis; format: ADME, organism-based; parameters: route intravenous, time 8 hrs, dose 3 mg/kg; settings: in vivo
quantity_measured: Cmax (ng/mL)

1) CN(CCCCN(C[C@H]1Cc2ncccc2CN1)[C@H]1CCCc2cccnc21)C1CCC(F)(F)CC1: 116

----------
biological target: Cytochrome P450 2C9 (Homo sapiens)
Sequence (P11712 whole entry): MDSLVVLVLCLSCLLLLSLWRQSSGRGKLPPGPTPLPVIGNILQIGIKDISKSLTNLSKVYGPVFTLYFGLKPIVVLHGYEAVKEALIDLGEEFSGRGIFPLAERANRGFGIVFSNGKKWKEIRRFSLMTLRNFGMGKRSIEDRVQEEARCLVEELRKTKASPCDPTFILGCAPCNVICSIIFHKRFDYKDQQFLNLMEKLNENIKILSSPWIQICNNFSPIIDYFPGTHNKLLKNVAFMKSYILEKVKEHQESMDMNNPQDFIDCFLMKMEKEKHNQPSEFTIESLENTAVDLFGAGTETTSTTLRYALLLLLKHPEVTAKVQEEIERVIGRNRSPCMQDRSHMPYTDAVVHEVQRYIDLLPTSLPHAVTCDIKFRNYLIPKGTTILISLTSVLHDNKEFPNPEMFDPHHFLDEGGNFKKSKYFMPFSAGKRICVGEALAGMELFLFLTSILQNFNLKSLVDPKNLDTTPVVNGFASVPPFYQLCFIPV
quantity_measured: IC50

1. CN(CCCCN(C[C@H]1Cc2ncccc2CN1)[C@H]1CCCc2cccnc21)C1CCC(F)(F)CC1: > 20 µM

----------
experiment: Metabolic stability in rat liver microsomes assessed compound remaining measured after 10 mins in presence of NADPH; format: ADME, Microsome; conditions: read-out: Stability
quantity_measured: remaining at 10 min (%)

1. CN(CCCCN(C[C@H]1Cc2ncccc2CN1)[C@H]1CCCc2cccnc21)C1CCC(F)(F)CC1: 8
2. NCCCCN(C[C@@H]1Cc2nccnc2CN1)[C@H]1CCCc2cccnc21: 67
3. c1cnc2c(c1)CN[C@@H](CN(CCCCNC1CCOCC1)[C@H]1CCCc3cccnc31)C2: 49
4. CCN(CC)CCCCN(C[C@H]1Cc2ncccc2CN1)[C@H]1CCCc2cccnc21: 6
5. NCCCCN(C[C@H]1Cc2nccnc2CN1)[C@H]1CCCc2cccnc21: 50
6. c1cnc2c(c1)CN[C@@H](CN(CCCCN1CCOCC1)[C@H]1CCCc3cccnc31)C2: 39
7. CN(C)CCCCN(C[C@H]1Cc2ncccc2CN1)[C@H]1CCCc2cccnc21: 27
8. FC1(F)CCC(NCCCCN(C[C@H]2Cc3ncccc3CN2)[C@H]2CCCc3cccnc32)CC1: 10
9. NC(=O)NC/C=C/CN(C[C@H]1Cc2ncccc2CN1)[C@H]1CCCc2cccnc21: 1

----------
test: Oral bioavailability in mouse at 30 mg/kg measured at 24 hrs by LC-MS/MS analysis; type: ADME, organism-based; conditions: in vivo
quantity_measured: bioavailability (%)

1. NCCCCN(Cc1nc2ccccc2[nH]1)[C@H]1CCCc2cccnc21: 2.42
2. CN(CCCCN(C[C@H]1Cc2ncccc2CN1)[C@H]1CCCc2cccnc21)C1CCC(F)(F)CC1: 27.1

----------
experiment: Metabolic stability in mouse liver microsomes assessed compound remaining measured after 10 mins in presence of NADPH; type: ADME, Microsome; settings: read-out: Stability
quantity_measured: remaining at 10 min (%)

1. c1cnc2c(c1)CN[C@@H](CN(CCCC1CCNCC1)[C@H]1CCCc3cccnc31)C2: 69
2. NCCCCN(C[C@H]1Cc2nccnc2CN1)[C@H]1CCCc2cccnc21: 77
3. NCCCCN(C[C@@H]1Cc2nccnc2CN1)[C@H]1CCCc2cccnc21: 73
4. NCCCCN(C[C@H]1Cc2cccnc2CN1)[C@H]1CCCc2cccnc21: 69
5. NC/C=C\CN(C[C@H]1Cc2ncccc2CN1)[C@H]1CCCc2cccnc21: 37
6. NC(=O)NCCCCN(C[C@H]1Cc2ncccc2CN1)[C@H]1CCCc2cccnc21: 32
7. c1cnc2c(c1)CN[C@@H](CN(CCCCNC1CCOCC1)[C@H]1CCCc3cccnc31)C2: 35
8. NCc1ccc(CN(C[C@H]2Cc3ncccc3CN2)[C@H]2CCCc3cccnc32)cc1: 53
9. CCN(CC)CCCCN(C[C@H]1Cc2ncccc2CN1)[C@H]1CCCc2cccnc21: 1
10. c1cnc2c(c1)CN[C@@H](CN(CCCCN(C1COC1)C1COC1)[C@H]1CCCc3cccnc31)C2: 33
11. NCCCCN(C[C@@H]1Cc2cccnc2CN1)[C@H]1CCCc2cccnc21: 25
12. CN(C[C@H]1Cc2ncccc2CN1)[C@H]1CCCc2cccnc21: 53
13. CN(CCCCN(C[C@H]1Cc2ncccc2CN1)[C@H]1CCCc2cccnc21)C1CCOCC1: 51
14. CN(C)CCCCN(C[C@H]1Cc2ncccc2CN1)[C@H]1CCCc2cccnc21: 55
15. NC(=O)NC/C=C\CN(C[C@H]1Cc2ncccc2CN1)[C@H]1CCCc2cccnc21: 10
16. NC(=O)NC/C=C/CN(C[C@H]1Cc2ncccc2CN1)[C@H]1CCCc2cccnc21: 19
17. FC1(F)CCC(NCCCCN(C[C@H]2Cc3ncccc3CN2)[C@H]2CCCc3cccnc32)CC1: 47
18. CN(C[C@@H]1Cc2ncccc2CN1)[C@H]1CCCc2cccnc21: 0
19. NCCCCN(C[C@H]1Cc2ncccc2CN1)[C@H]1CCCc2cccnc21: 86
20. c1cnc2c(c1)CN[C@@H](CN(CCCCNC1COC1)[C@H]1CCCc3cccnc31)C2: 41
21. c1cnc2c(c1)CN[C@@H](CN(CCCCN1CCOCC1)[C@H]1CCCc3cccnc31)C2: 20
22. CN(CCCCN(C[C@H]1Cc2ncccc2CN1)[C@H]1CCCc2cccnc21)C1CCC(F)(F)CC1: 35
23. NC/C=C/CN(C[C@H]1Cc2ncccc2CN1)[C@H]1CCCc2cccnc21: 37
24. NCCCCN(C[C@@H]1Cc2ncccc2CN1)[C@H]1CCCc2cccnc21: 75
